Target Or Test System: HA of ca A/Panama/2007/99 (H3N2) (influenza A virus)
Experimental Protocol: cell-based or functional assay
Readout: Neutralization (IC50)

According to the records, this binder GL20 IgG (antibody, V domains shown) VH: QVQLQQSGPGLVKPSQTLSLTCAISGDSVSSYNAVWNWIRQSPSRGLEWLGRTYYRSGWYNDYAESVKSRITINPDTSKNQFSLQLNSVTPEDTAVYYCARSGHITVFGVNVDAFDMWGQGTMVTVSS VL: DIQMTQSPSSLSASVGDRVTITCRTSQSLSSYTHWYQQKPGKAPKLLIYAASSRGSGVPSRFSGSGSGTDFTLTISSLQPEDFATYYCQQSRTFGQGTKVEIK displays Neutralization (IC50) of 46.9 nM

According to the records, this binder FBC39 IgG (antibody, V domains shown) VH: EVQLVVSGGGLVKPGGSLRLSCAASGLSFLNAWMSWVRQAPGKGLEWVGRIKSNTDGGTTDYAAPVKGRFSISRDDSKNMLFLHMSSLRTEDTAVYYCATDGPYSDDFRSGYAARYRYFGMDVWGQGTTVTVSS VL: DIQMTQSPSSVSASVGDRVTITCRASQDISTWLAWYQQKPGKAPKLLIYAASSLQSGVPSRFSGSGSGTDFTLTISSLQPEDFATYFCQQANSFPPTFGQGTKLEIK displays Neutralization (IC50) of > 1000 nM

According to the records, this binder FY1 IgG (antibody, V domains shown) VH: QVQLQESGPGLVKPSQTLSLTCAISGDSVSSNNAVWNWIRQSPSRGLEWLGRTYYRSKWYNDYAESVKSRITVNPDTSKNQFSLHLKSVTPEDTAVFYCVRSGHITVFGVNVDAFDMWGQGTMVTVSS VL: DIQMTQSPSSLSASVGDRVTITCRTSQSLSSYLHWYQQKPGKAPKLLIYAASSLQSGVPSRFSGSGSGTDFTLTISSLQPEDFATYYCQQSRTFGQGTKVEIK displays Neutralization (IC50) of 104 nM

According to the records, this binder FBD94 IgG (antibody, V domains shown) VH: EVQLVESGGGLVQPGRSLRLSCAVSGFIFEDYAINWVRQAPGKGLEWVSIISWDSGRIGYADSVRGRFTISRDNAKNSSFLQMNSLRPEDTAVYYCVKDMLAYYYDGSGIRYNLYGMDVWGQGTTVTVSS VL: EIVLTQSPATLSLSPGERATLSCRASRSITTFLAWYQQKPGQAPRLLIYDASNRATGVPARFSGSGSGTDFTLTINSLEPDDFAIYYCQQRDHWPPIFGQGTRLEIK displays Neutralization (IC50) of > 1000 nM
